compounds and their reported IC50
test-system: menin-MLL interaction (Homo sapiens, UniProt O00255)
Sequence (O00255 1-610): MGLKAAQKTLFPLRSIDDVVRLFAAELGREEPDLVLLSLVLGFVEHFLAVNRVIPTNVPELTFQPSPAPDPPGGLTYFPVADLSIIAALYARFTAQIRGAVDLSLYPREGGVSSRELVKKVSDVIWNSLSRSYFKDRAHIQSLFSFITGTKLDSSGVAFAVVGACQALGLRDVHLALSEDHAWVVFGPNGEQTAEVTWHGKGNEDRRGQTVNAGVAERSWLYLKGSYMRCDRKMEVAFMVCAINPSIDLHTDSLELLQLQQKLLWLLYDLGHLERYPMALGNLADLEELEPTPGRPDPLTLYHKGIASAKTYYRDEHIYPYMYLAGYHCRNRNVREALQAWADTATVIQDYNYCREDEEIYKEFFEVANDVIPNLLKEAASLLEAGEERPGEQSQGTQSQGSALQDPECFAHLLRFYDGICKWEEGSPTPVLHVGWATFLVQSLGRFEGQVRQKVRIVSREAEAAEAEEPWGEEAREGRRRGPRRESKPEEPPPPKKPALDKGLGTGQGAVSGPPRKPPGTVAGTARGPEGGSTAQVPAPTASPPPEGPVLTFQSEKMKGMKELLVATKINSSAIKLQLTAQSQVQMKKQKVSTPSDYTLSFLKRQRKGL
procedure-text: Fluorescence polarization (FP) competition assay
assay-setup: read-out: Menin MLL 4-43 IC50
experimental-endpoint: IC50

compound	experimental-endpoint	result
Cc1c(CN2CCC(Nc3ncnc4sc(CC(F)(F)F)cc34)CC2)ccc2c1cc(C#N)n2CC(C1CC1)N1CCN(S(C)(=O)=O)CC1 (centres unmarked)	IC50	< 50 nM
COCCNS(=O)(=O)N1CCN([C@@H](C)Cn2c(C#N)cc3c(C)c(CN4CCC(Nc5ncnc6sc(CC(F)(F)F)cc56)CC4)ccc32)CC1	IC50	50 to 250 nM
